- assayed.system: C-GMP-PDE (type V) (Homo sapiens, UniProt O76074)
- Construct: from tissue; host or cells: human blood platelets (healthy adult), DEAE-cellulose fraction FI
- assay.explanation: Pharmacological test 4: C-GMP-PDE (type V) inhibition action
- Format: biochemical
- recorded.conditions: FI fraction from human blood platelet
outcome.measure: IC50
// return the numeric value with its unit appended

Would you kindly share the measured IC50 for C=CCc1cc2c(cc1O)C(=O)c1c-2ccc(O)c1CC=C [Example 47, 1,6-Diallyl-2,7-dihydroxyfluorenone] ? 3.4 µM

Please report the recorded IC50 for C=CCc1cc2c(cc1O)C(=O)c1cc(O)c(CC=C)cc1-2 [Example 49] . 2.2 µM

IC50 lookup needed for C=CCc1c(O)c(O)c(CC=C)c2c1C(=O)c1ccccc1-2 [Example 21, 1,4-diallyl-2,3-dihydroxyfluorenone] , thanks. 14.7 µM

// query IC50 value for entry C=CCc1cc2c(c(CC=C)c1O)C(=O)c1c(CC=C)cc(CC=C)c(O)c1-2 [Example 31] 0.4 µM

What value of measured IC50 is listed for C=CCc1ccc2c(c1O)-c1ccc(O)c(CC=C)c1C2=O [Example 27, 1,6-Diallyl-2,5-dihydroxyfluorenone] ? 8.7 µM

Data provenance is patent US5942641A.
